# experiment: NCI Yeast Anticancer Drug Screen. Data for the rad52 strain (AID 147)
# experimental.parameters: S. cerevisiae rad52 mutant growth inhibition; at 11.0 µM
The panel holds about 79,000 compounds, 15% with a hit somewhere; the sample as a whole holds those more often. The source made the active and inactive calls. No stated cut-off is given here; in the data, active means growth inhibition above about 70%; inactive means the rest.
Possible outcomes: active, inactive

INSERT INTO measurements (molecule, group) VALUES
  ('N#C/C(=C\NC(=S)Nc1ccc(S(N)(=O)=O)cc1)C(=O)c1ccc2ccccc2c1', 'inactive'),
  ('O=C1C=C(NCCc2cc(Br)c(O)c(Br)c2)C(=O)c2ncccc21', 'inactive'),
  ('CCC(=O)C1=C(O)c2cc(OC)ccc2CC1C(=O)OC (configuration not stated)', 'inactive'),
  ('Brc1ccc(B2Nc3ccccc3N2)cc1', 'inactive'),
  ('O=P(C(=S)Nc1c(Cl)cccc1Cl)(c1ccccc1)c1ccccc1', 'inactive'),
  ('C=CCNC1=C2C[C@@H](C)C[C@H](OC)[C@H](O)[C@@H](C)/C=C(\C)[C@H](OC(N)=O)[C@@H](OC)/C=C\C=C(/C)C(=O)NC(=CC1=O)C2=O', 'inactive'),
  ('COc1ccccc1/C=C\C(=O)C1COCN1 (configuration not stated)', 'inactive'),
  ('COC(=O)C(Cc1c[nH]c2ccccc12)N1CN(C)c2ccccc2C1=O (configuration not stated)', 'inactive'),
  ('CCCCCCCSCC1C(=O)C23C(O)C1CCC2C12COC3(O)C(O)C1C(C)(C)CCC2O (configuration not stated)', 'active'),
  ('CC(C)CCC[C@@H](C)[C@H]1CC[C@H]2[C@@H]3CC[C@H]4C[C@H](N)CC[C@]4(C)[C@H]3CC[C@]12C', 'inactive'),
  ('CN(C)N=Nc1ccc(N(C)C)cc1', 'inactive'),
  ('CCC[CH2][Ge]([CH2]CCC)([CH2]CCC)[O]C(=O)C(O)c1ccccc1 (configuration not stated)', 'inactive'),
  ('O=C(O)c1ccc2cc(Cl)c3ccccc3c2c1', 'inactive'),
  ('CCCCCCCN(CCCCCCC)CC(=O)c1ccc2cc(Cl)c3ccccc3c2c1', 'active'),
  ('O=C(Cc1ccccc1)NNc1nc(NNC(=O)c2ccncc2)nc(Nc2ccc([N+](=O)[O-])cc2)n1', 'inactive'),
  ('CC(C)S(=O)(=O)/C=C\S(=O)(=O)C(C)C', 'inactive'),
  ('CN(C)CC(CN(C)C)C(=O)/C=C/c1ccc(Cl)cc1Cl', 'inactive'),
  ('CCN(CC)CCNc1ccc2ncn3c4ccc(O)cc4c(=O)c1c23', 'inactive'),
  ('CC12CCC(CC(=O)/C1=C(/Br)I)C2(C)C (configuration not stated)', 'inactive'),
  ('O=[N+]([O-])c1cccc2nc3ccccc3c(NCCCN3CCCCC3)c12', 'active'),
  ('S=C1N(c2ccc(Cl)cc2)C2=C(N=Nc3ccccc3)C(=Nc3ccccc3S2)N1c1ccccn1', 'inactive'),
  ('COC(=N)c1ccc(O)c(C)c1', 'inactive');
